measurementTarget: Mouse AhR (Mus musculus, UniProt P30561)
protocol: Transactivation assay in mouse cell line (in vitro assay 2: antagonism)
conditionLabel: Hepa 1c1c7 cells, AHR inducible (DRE) firefly luciferase reporter, 200 μM kynurenic acid, 20 hours
Label key: fulfilled means IC50 under 8 nM; not fulfilled means IC50 of 8 nM or more.

Recorded results for 3 compounds are shown here.
compound	group
C[C@H](CO)NC(=O)c1cc(-c2ccc(OC(F)(F)F)cc2)nc(-c2cccnc2)n1	not fulfilled
Cn1cc(-c2nc(C(=O)NC(CO)Cc3cccnc3)cc(-c3ccc(OC(F)(F)F)cc3)n2)cn1 (stereo not drawn)	not fulfilled
CC(C)Cn1cc(-c2nc(C(=O)N[C@@H](C)CO)cc(-c3ccc(OC(F)(F)F)cc3)n2)cn1	not fulfilled

QUERY: Dear reviewer, please state whether `Cc1ccc(-c2nc(C(=O)N[C@@H](C)CO)cc(-c3ccc(OC(F)(F)F)cc3)n2)cn1` has IC50 strictly beneath 8 nM.
RESULT: not fulfilled

QUERY: Dear reviewer, please state whether `Cn1nccc1-c1nc(C(=O)NCC(C)(C)O)cc(-c2ccc(Cl)cc2)n1` has IC50 strictly beneath 8 nM.
RESULT: not fulfilled

QUERY: Find out if reported IC50 for `Cn1cc(-c2nc(C(=O)N[C@H](CO)C3CC3)cc(-c3ccc(OC(F)(F)F)cc3)n2)cn1` is less than 8 nM
RESULT: not fulfilled
